The origin of these recorded values is paper PMC10044445.

- Tested on: S. aureus
- protocolText: Minimum inhibitory concentration, broth microdilution (CLSI)
- Type: cell-based, Staphylococcus aureus
- statedConditions: Staphylococcus aureus; broth microdilution in MHB, 18–24 h
endpoint: MIC90

MIC90 in this record for NCCCNC(=O)[C@H](Cc1c[nH]c2ccccc12)NC(=O)c1cc(Br)ccc1NC(=O)c1ccc2ccccc2n1 [Compound 13e] : > 125 µM

MIC90 in this record for NCCNC(=O)[C@H](Cc1c[nH]c2ccccc12)NC(=O)c1cc(Br)ccc1NC(=O)c1cccc(-c2ccccc2)c1 [Compound 12j] : 3.9 µM

MIC90 in this record for COc1cc2ccccc2cc1C(=O)Nc1ccc(Br)cc1C(=O)N[C@@H](Cc1c[nH]c2ccccc12)C(=O)NCCCN [Compound 13d] : 3.9 µM

MIC90 in this record for NCCCC[C@H](N)C(=O)NCCNC(=O)[C@H](Cc1c[nH]c2ccccc12)NC(=O)c1cc(Br)ccc1NC(=O)c1ccc(-c2ccccc2)cc1 [Compound 19c] : 15.6 µM
